# System Tested: T1, PC2, P16519
# T1 chain: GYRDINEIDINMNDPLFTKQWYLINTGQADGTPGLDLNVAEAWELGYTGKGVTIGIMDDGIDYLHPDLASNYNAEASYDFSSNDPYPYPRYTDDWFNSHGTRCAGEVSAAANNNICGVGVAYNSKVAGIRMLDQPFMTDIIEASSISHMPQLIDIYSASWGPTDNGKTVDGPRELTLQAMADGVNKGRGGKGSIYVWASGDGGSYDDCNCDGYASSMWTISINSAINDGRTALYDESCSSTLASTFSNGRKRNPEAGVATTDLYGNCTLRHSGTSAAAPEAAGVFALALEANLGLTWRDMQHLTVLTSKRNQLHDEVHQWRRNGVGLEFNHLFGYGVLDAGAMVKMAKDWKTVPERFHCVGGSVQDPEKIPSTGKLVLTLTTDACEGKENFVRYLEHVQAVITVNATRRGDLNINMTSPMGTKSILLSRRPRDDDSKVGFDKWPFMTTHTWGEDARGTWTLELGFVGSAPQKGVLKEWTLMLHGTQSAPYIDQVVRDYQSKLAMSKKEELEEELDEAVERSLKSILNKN
# Condition Context: modification not given
Quantity Measured: Ki (µM)
Reply with just the number (in µM).

Q: Quick one: Ki for Ac-KRKRRR-NH2 [Ac-KRKRRR-NH2] ?
A: 391
